Task for the reader: assign each of the following compounds its reported inhibition at 0.1 ppm.
Target: AtPPO1 V365L Y426V L479N (SEQ ID NO.126) (Arabidopsis thaliana, UniProt P55826, L479N/V365L/Y426V)
Construct: made in house; host or cells: E. coli BL21 (DE3) hemG, crude extract
Experiment: fluorescent Protoporphyrinogen Oxidase assay, crude extract
Assay type: biochemical
Conditions: read-out: percentage inhibition
Protocol: A pET24 plasmid containing a DNA sequence encoding each identified variant mutant of AtPPO1 derived from Arabidopsis thaliana, codon-optimised for expression in E. coli, and under control of a T7 promoter, was synthesised by Twist Bioscience. […] Protein concentration was measured and calculated using the absorbance at 280 nm. Extracts were diluted 1 in 4 and 10 uL was analysed by SDS PAGE. […]
The reply should be a number in %, with the unit left off.

For the compound CC(C)N(C)S(=O)(=O)NC(=O)c1cc(-n2c(=O)cc(C(F)(F)F)n(C)c2=O)c(F)cc1Cl [Herbicide E, saflufenacil] , give its measured inhibition at 0.1 ppm value.
0

Give the measured inhibition at 0.1 ppm for CCOC(=O)[C@]1(C)CC(c2cc(-n3c(=O)n(C)c(=S)n(C)c3=O)c(F)cc2Cl)=NO1 [Herbicide D]
12

Please give the documented inhibition at 0.1 ppm of CCOC(=O)COc1ncccc1Oc1cc(-n2c(=O)cc(C(F)(F)F)n(C)c2=O)c(F)cc1Cl [Herbicide A, epyrifenacil]
0

Give the value of inhibition at 0.1 ppm reported for the following: CCOC(=O)C1(C)CC(c2cc(-n3c(=O)cc(C(F)(F)F)n(C)c3=O)c(F)cc2Cl)=NO1 (centres unmarked) [Herbicide C]
4

Please indicate inhibition at 0.1 ppm recorded for C#CCN1C(=O)C(F)(F)Oc2cc(F)c(-n3c(=O)n(C)c(=S)n(C)c3=O)cc21 [Herbicide B, trifludimoxazin]
98

====

Record form. Attribute: inhibition at 1 ppm. Fill in for each entry.
Biological target: AtPPO1 S305L G404A L479N (SEQ ID NO.137) (Arabidopsis thaliana, UniProt P55826, G404A/L479N/S305L)
Construct: made in house; host or cells: E. coli BL21 (DE3) hemG, crude extract
Sequence (P55826 35-537 S305L/G404A/L479N): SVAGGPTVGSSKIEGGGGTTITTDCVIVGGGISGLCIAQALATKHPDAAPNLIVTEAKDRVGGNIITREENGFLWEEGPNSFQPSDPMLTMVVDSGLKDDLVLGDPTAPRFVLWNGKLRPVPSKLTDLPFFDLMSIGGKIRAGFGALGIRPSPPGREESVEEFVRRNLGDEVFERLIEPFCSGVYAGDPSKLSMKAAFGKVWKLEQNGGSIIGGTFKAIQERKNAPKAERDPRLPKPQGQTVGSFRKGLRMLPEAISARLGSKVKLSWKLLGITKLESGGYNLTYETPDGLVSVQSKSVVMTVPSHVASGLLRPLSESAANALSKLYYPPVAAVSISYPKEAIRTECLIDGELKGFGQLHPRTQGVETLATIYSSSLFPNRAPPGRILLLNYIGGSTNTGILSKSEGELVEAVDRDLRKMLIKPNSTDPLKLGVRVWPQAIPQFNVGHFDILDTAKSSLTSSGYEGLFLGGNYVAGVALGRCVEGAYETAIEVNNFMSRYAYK
Assay: fluorescent Protoporphyrinogen Oxidase assay, crude extract
Assay type: biochemical
Settings: read-out: percentage inhibition
Protocol: A pET24 plasmid containing a DNA sequence encoding each identified variant mutant of AtPPO1 derived from Arabidopsis thaliana, codon-optimised for expression in E. coli, and under control of a T7 promoter, was synthesised by Twist Bioscience. […] Protein concentration was measured and calculated using the absorbance at 280 nm. Extracts were diluted 1 in 4 and 10 uL was analysed by SDS PAGE. […]
The answer is to be given in %; state only the numeric part.

Let me know recorded inhibition at 1 ppm for CCOC(=O)[C@]1(C)CC(c2cc(-n3c(=O)n(C)c(=S)n(C)c3=O)c(F)cc2Cl)=NO1 [Herbicide D] , thanks.
58

Retrieve inhibition at 1 ppm measured for CC(C)N(C)S(=O)(=O)NC(=O)c1cc(-n2c(=O)cc(C(F)(F)F)n(C)c2=O)c(F)cc1Cl [Herbicide E, saflufenacil] and print it.
66

Identify inhibition at 1 ppm associated with the compound C#CCN1C(=O)C(F)(F)Oc2cc(F)c(-n3c(=O)n(C)c(=S)n(C)c3=O)cc21 [Herbicide B, trifludimoxazin]
98

Note inhibition at 1 ppm for the compound shown: CCOC(=O)COc1ncccc1Oc1cc(-n2c(=O)cc(C(F)(F)F)n(C)c2=O)c(F)cc1Cl [Herbicide A, epyrifenacil]
93

Find the measured inhibition at 1 ppm of CCOC(=O)C1(C)CC(c2cc(-n3c(=O)cc(C(F)(F)F)n(C)c3=O)c(F)cc2Cl)=NO1 (centres unmarked) [Herbicide C] and report it.
90
